The measured values listed here are drawn from patent US11878965B2.

- assay-system: UniProt Q9UM07
- test-name: In Vitro PAD4 BAEE Biochemical Assay
- assay-setup: human PAD4, BAEE substrate; 5 nM PAD4, 2 mM calcium chloride, 3 mM BAEE; geometric mean of multiple experiments
property-measured: pIC50
// scale note: pIC50 = -log10(conc_M); give the bare number

Asked: Quickly give me recorded pIC50 for COc1cc(C(=O)N2[C@H]3CC[C@@H]2[C@H](N)C3)cc2nc(-c3cc4ccc([C@@H](C)NC(=O)c5ccccc5C(F)F)nc4n3CC3CC3)n(C)c12
Given back: 6.81

Asked: Quickly give me recorded pIC50 for COc1cc(C(=O)N2CCC[C@@H](N)C2)cc2nc(-c3cc4ccc([C@@H](C)NC(=O)C5CC5(F)F)cc4n3CC3CC3)n(C3CC3)c12 (stereo partly drawn)
Given back: 6.99

Asked: Quickly give me recorded pIC50 for COc1cc(C(=O)N2CCC[C@@H](N)C2)cc2nc(-c3cc4ccc(N(C)C(=O)N(C)C)nc4n3CC3CC3)n(C)c12
Given back: 5.95

Asked: Quickly give me recorded pIC50 for COc1cc(C(=O)N2C[C@H](N)CC[C@@H]2C)cc2nc(-c3cc4ccc(-c5cccnc5N5CCNCC5)nc4n3CC3CC3)n(C)c12
Given back: 5.73

Asked: Quickly give me recorded pIC50 for COc1cc(C(=O)N2[C@@H]3CC[C@@H](N)[C@H]2CC3)cc2nc(-c3cc4ccc(N(C(F)F)S(C)(=O)=O)nc4n3CC3CC3)n(C3CC3)c12
Given back: 6.84

Asked: Quickly give me recorded pIC50 for CCN(c1ccc2cc(-c3nc4cc(C(=O)N5CCC[C@@H](N)[C@H]5C)cc(OC)c4n3C3CC3)n(CC3CC3)c2n1)S(C)(=O)=O
Given back: 6.85

----------
- assay-system: UniProt:Q9UM07
- test-name: In Vitro PAD4 BAEE Biochemical Assay
- assay-setup: human PAD4, BAEE substrate; 5 nM PAD4, 2 mM calcium chloride, 3 mM BAEE; geometric mean of multiple experiments
pIC50: −log10 of the molar value.
Short version: pIC50 at least 7 is True, less is False.

Asked: Given C=CC(=O)N[C@@H]1CNC[C@H]1NC(=O)c1cc(OC)c2c(c1)nc(-c1cc3ccc(N(C(F)F)S(C)(=O)=O)nc3n1CC1CC1)n2C , state whether its pIC50 is at least 7.
Given back: False

Asked: Given COC(=O)N(C)c1ccc2cc(-c3nc4cc(C(=O)N5[C@H]6CC[C@@H]5[C@H](N)C6)cc(OC)c4n3C)n(CC3CC3)c2c1 , state whether its pIC50 is at least 7.
Given back: True

Asked: Given COc1cc(C(=O)N[C@@H]2CCNC2)cc2nc(-c3cc4ccc(N(C(F)F)S(C)(=O)=O)nc4n3CC3CC3)n(C)c12 , state whether its pIC50 is at least 7.
Given back: False

----------
- assay-system: UniProt Q9UM07
- test-name: In Vitro PAD4 BAEE Biochemical Assay
- assay-setup: human PAD4, BAEE substrate; 5 nM PAD4, 2 mM calcium chloride, 3 mM BAEE; geometric mean of multiple experiments
pIC50: −log10 of the molar value.
Short version: pIC50 at least 7 is Criterion met, less is Criterion not met.

Asked: Given C[C@H]1CCCS(=O)(=O)N1c1ccc2cc(-c3nc4cc(C(=O)N5[C@H]6CC[C@@H]5[C@H](N)C6)ccc4n3C3CC3)n(CC3CC3)c2n1 , state whether its pIC50 is at least 7.
Given back: Criterion met

Asked: Given COc1cc(C(=O)N2C[C@H](N)CC[C@@H]2C)cc2nc(-c3cc4ccc(-c5cccc6c5NC(=O)C6)nc4n3CC3CC3)n(C)c12 , state whether its pIC50 is at least 7.
Given back: Criterion not met

Asked: Given COc1cc(C(=O)N2C[C@H](N)CC[C@@H]2C)cc2nc(-c3cc4ccc(-c5cccnc5S(C)(=O)=O)nc4n3CC3CC3)n(C)c12 , state whether its pIC50 is at least 7.
Given back: Criterion not met

Asked: Given COc1cc(C(=O)N2CCC[C@@H](N)C2)cc2nc(-c3cc4ccc(N(C)S(=O)(=O)C5CC5)nc4n3CC3CC3)n(C)c12 , state whether its pIC50 is at least 7.
Given back: Criterion not met

Asked: Given CS(=O)(=O)N(c1ccc2cc(-c3nc4cc(C(=O)N5[C@H]6CC[C@@H]5[C@H](N)C6)ccc4n3C3CC3)n(CC3CC3)c2n1)C(F)F , state whether its pIC50 is at least 7.
Given back: Criterion met

----------
- assay-system: human PAD4 (Homo sapiens (Human))
- Sequence (Q9UM07 2-663): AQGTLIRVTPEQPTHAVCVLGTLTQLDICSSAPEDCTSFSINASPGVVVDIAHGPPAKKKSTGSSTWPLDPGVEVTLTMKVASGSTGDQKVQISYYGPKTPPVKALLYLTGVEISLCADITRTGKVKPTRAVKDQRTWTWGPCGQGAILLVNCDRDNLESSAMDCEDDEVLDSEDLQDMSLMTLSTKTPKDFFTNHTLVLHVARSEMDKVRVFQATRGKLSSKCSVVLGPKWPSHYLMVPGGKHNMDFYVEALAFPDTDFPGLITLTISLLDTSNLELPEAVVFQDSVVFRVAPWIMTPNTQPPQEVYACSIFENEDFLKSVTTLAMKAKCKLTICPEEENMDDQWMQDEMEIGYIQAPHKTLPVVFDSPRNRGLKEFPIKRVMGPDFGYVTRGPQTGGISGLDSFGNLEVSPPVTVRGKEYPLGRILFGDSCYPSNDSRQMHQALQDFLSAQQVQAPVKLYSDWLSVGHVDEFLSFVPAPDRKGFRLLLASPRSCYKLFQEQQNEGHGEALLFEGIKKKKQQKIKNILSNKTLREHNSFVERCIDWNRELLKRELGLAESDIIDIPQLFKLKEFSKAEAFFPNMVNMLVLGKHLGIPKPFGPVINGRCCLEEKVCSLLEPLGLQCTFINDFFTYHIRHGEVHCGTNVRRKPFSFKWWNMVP
- test-name: In Vitro PAD4 BAEE Biochemical Assay
- assay-setup: human PAD4, BAEE substrate; 5 nM PAD4, 2 mM calcium chloride, 3 mM BAEE; geometric mean of multiple experiments
property-measured: IC50 (nM)
Kindly provide the numeric value in nM only, without the unit symbol.

Asked: Quickly give me recorded IC50 for CCN(C(=O)OC)c1ccc2cc(-c3nc4cc(C(=O)N5CCC[C@@H](N)C5)ccc4n3C3CC3)n(CC3CC3)c2n1 [Example 113]
Given back: 196

Asked: Quickly give me recorded IC50 for COc1cc(C(=O)N2C[C@H](N)CC[C@@H]2C)cc2nc(-c3cc4ccc(N5C(=O)CCCC5C)nc4n3CC3CC3)n(C)c12 (some centres unmarked)
Given back: 643

Asked: Quickly give me recorded IC50 for COc1cc(C(=O)N2CCC[C@@H](N)C2)cc2nc(-c3cc4ccc([C@@H](C)NC(=O)C(C)(C)C)nc4n3CC3CC3)n(C3CC3)c12
Given back: 61.5

Asked: Quickly give me recorded IC50 for COc1cc(C(=O)N2[C@H]3CC[C@@H]2[C@H](N)C3)cc2nc(-c3cc4ccc([C@@H](C)NC(=O)C56CC(F)(C5)C6)cc4n3CC3CC3)n(C)c12
Given back: 32.2

Asked: Quickly give me recorded IC50 for COc1cc(C(=O)N2CC3CCCC3(N)C2)cc2nc(-c3cc4ccc(N(C(F)F)S(C)(=O)=O)nc4n3CC3CC3)n(C)c12 (centres unmarked)
Given back: 7200

Asked: Quickly give me recorded IC50 for COC(=O)N(c1ccc2cc(-c3nc4cc(C(=O)N5CCC[C@@H](N)C5)cc(OC)c4n3C)n(CC3CC3)c2n1)C1CCC1
Given back: 509

Asked: Quickly give me recorded IC50 for COc1cc(C(=O)N2[C@H]3CC[C@@H]2[C@H](N)C3)cc2nc(-c3cc4ccc(N(C(F)F)S(C)(=O)=O)nc4n3CC3CC3)n(C3CC3)c12
Given back: 128

Asked: Quickly give me recorded IC50 for COc1cc(C(=O)N2C[C@H](N)CCN2C)cc2nc(-c3cc4ccc([C@@H](C)NC(=O)C5(c6ccc(F)cc6)CC5)nc4n3CC3CC3)n(C)c12
Given back: 340

Asked: Quickly give me recorded IC50 for COc1cc(C(=O)N2C[C@H](N)CCN2C)cc2nc(-c3cc4ccc([C@@H](C)NC(=O)c5nccc(C)n5)nc4n3CC3CC3)n(C)c12
Given back: 74.9

Asked: Quickly give me recorded IC50 for COc1cc(C(=O)N2C[C@H](N)CCN2C)cc2nc(-c3cc4ccc([C@@H](C)NC(=O)c5cc(F)cc(F)c5)nc4n3CC3CC3)n(C)c12
Given back: 166

Asked: Quickly give me recorded IC50 for [2H][C@@]1(N)CCCN(C(=O)c2cc(OC)c3c(c2)nc(-c2cc4ccc(N(C(F)F)S(C)(=O)=O)nc4n2CC2CC2)n3C)C1
Given back: 110

Asked: Quickly give me recorded IC50 for COc1cc(C(=O)N2C[C@@H]3CC[C@@](N)(C3)C2)cc2nc(-c3cc4ccc(N(C(F)F)S(C)(=O)=O)nc4n3CC3CC3)n(C)c12
Given back: 36800

Asked: Quickly give me recorded IC50 for COc1cc(C(=O)N2CCC[C@@H](N)C2)cc2nc(-c3cc4ccc(N(Cc5ccccc5)S(C)(=O)=O)nc4n3CC3CC3)n(C)c12
Given back: 192

Asked: Quickly give me recorded IC50 for COc1cc(C(=O)N2C[C@@H]3C[C@@H](N)[C@H]2C3)cc2nc(-c3cc4ccc(N(C(F)F)S(C)(=O)=O)nc4n3CC3CC3)n(C)c12
Given back: 47600

Asked: Quickly give me recorded IC50 for COc1cc(C(=O)N2[C@H]3CC[C@@H]2[C@H](N)C3)cc2nc(-c3cc4ccc(-n5c(C)cccc5=O)nc4n3CC3CC3)n(C)c12
Given back: 40.2

Asked: Quickly give me recorded IC50 for COc1cc(C(=O)N2CCC[C@@H](N)[C@H]2C)cc2nc(-c3cc4ccc(N(C)S(C)(=O)=O)nc4n3C3CC3)n(C)c12
Given back: 1730

Asked: Quickly give me recorded IC50 for COc1cc(C(=O)N2C[C@H](N)CC[C@@H]2C)cc2nc(-c3cc4ccc(N(C(F)F)S(C)(=O)=O)nc4n3CC3CC3)n(C3CC3)c12
Given back: 221

Asked: Quickly give me recorded IC50 for [2H][C@]1(N)CCCN(C(=O)c2cc(OC)c3c(c2)nc(-c2cc4ccc(N(C(F)F)S(C)(=O)=O)nc4n2CC2CC2)n3C)C1
Given back: 1160

Asked: Quickly give me recorded IC50 for COc1cc(C(=O)N2C[C@H](N)CC[C@@H]2C)cc2nc(-c3cc4ccc(N(C(F)F)S(C)(=O)=O)nc4n3CC3CC3)n(C34CC(C3)C4)c12
Given back: 2130

Asked: Quickly give me recorded IC50 for COc1cc(C(=O)N[C@H]2CNC[C@@H]2NC(C)=O)cc2nc(-c3cc4ccc(N(C(F)F)S(C)(=O)=O)nc4n3CC3CC3)n(C)c12
Given back: 39400

Asked: Quickly give me recorded IC50 for COc1cc(C(=O)N2CCC[C@@H](N)C2)cc2nc(-c3cc4cc(F)c([C@@H](C)NC(=O)c5cnn(C)c5)cc4n3CC3CC3)n(C)c12
Given back: 116

Asked: Quickly give me recorded IC50 for COc1cc(C(=O)N2C[C@H](N)CC[C@@H]2C)cc2nc(-c3cc4ccc(-c5c(C)ccc6[nH]ncc56)nc4n3CC3CC3)n(C)c12
Given back: 2330

Asked: Quickly give me recorded IC50 for [2H]C([2H])([2H])C(C(=O)N[C@H](C)c1ccc2cc(-c3nc4cc(C(=O)N5C[C@H](N)CCN5C)cc(OC)c4n3C)n(CC3CC3)c2n1)(C([2H])([2H])[2H])C([2H])([2H])[2H]
Given back: 92.2
